Cited source for all entries: the OligoGym collection

Kindly state normalised inhibition (eCFP-eYFP dual reporter) for each of the entries shown.
- testedSystem: UBE2I; also: test concentration or dose not given here
- experimentSummary: reporter assay of Huesken 2005
- assayConditions: siRNA
Oligonucleotides are written 5' to 3', each unit as a sugar letter and its base; * is a phosphorothioate linkage, no mark a phosphodiester; rarer units and linkages stand in square brackets, end groups in braces. Plain capitals give the bases only. d = 2'-deoxy (DNA); r = 2'-OH (RNA)
One number for each entry, in %.

Sample records with normalised inhibition (eCFP-eYFP dual reporter):
substance | testedSystem | observedMeasurement
sense rCrCrGrArUrGrGrCrArCrGrArUrGrArArCrCrUdTdT / antisense rArGrGrUrUrCrArUrCrGrUrGrCrCrArUrCrGrGdGdA | UBE2I | 81.8
sense rArGrArCrCrArCrCrCrArUrUrUrGrGrUrUrUrCdTdT / antisense rGrArArArCrCrArArArUrGrGrGrUrGrGrUrCrUdTdT | UBE2I | 79.8
sense rUrArUrUrArGrGrArArUrArCrArGrGrArArCrUdTdT / antisense rArGrUrUrCrCrUrGrUrArUrUrCrCrUrArArUrAdGdG | UBE2I | 71.9
sense rCrGrArArUrGrUrGrUrArCrCrCrUrUrCrGrGrGdTdT / antisense rCrCrCrGrArArGrGrGrUrArCrArCrArUrUrCrGdGdG | UBE2I | 45.1
sense rArUrUrUrGrGrUrUrUrCrGrUrGrGrCrUrGrUrCdTdT / antisense rGrArCrArGrCrCrArCrGrArArArCrCrArArArUdGdG | UBE2I | 51.6
sense rArArGrArArArGrGrGrArCrUrCrCrGrUrGrGrGdTdT / antisense rCrCrCrArCrGrGrArGrUrCrCrCrUrUrUrCrUrUdTdC | UBE2I | 45.6
sense rGrGrArGrGrCrUrUrGrUrUrUrArArArCrUrArCdTdT / antisense rGrUrArGrUrUrUrArArArCrArArGrCrCrUrCrCdTdT | UBE2I | 82.5
sense rGrArArArGrArArArGrGrGrArCrUrCrCrGrUrGdTdT / antisense rCrArCrGrGrArGrUrCrCrCrUrUrUrCrUrUrUrCdCdT | UBE2I | 53.1

Each substance below has a reported value. Please supply its normalised inhibition (eCFP-eYFP dual reporter).
1. sense rUrCrCrCrGrArUrGrGrCrArCrGrArUrGrArArCdTdT / antisense rGrUrUrCrArUrCrGrUrGrCrCrArUrCrGrGrGrAdTdT
2. sense rCrArCrCrCrArUrUrUrGrGrUrUrUrCrGrUrGrGdTdT / antisense rCrCrArCrGrArArArCrCrArArArUrGrGrGrUrGdGdT
3. sense rUrGrUrGrCrCrUrGrUrCrCrArUrCrUrUrArGrAdTdT / antisense rUrCrUrArArGrArUrGrGrArCrArGrGrCrArCrAdCdT
4. sense rArGrArArArGrGrGrArCrUrCrCrGrUrGrGrGrAdTdT / antisense rUrCrCrCrArCrGrGrArGrUrCrCrCrUrUrUrCrUdTdT
5. sense rArUrArCrArGrGrArArCrUrUrCrUrArArArUrGdTdT / antisense rCrArUrUrUrArGrArArGrUrUrCrCrUrGrUrArUdTdC
6. sense rArUrUrCrGrArArCrCrArCrCrArUrUrArUrUrUdTdT / antisense rArArArUrArArUrGrGrUrGrGrUrUrCrGrArArUdTdT
7. sense rUrGrUrUrUrArArArCrUrArCrGrGrArUrGrCrUdTdT / antisense rArGrCrArUrCrCrGrUrArGrUrUrUrArArArCrAdAdG
8. sense rUrUrCrArCrCrCrGrArArUrGrUrGrUrArCrCrCdTdT / antisense rGrGrGrUrArCrArCrArUrUrCrGrGrGrUrGrArAdAdT

a:
1: 48.8; 2: 85.4; 3: 76; 4: 63.1; 5: 52.1; 6: 81; 7: 68.1; 8: 49.6

For each of the substances below, note its normalised inhibition (eCFP-eYFP dual reporter).
1. sense rGrGrGrGrArCrArGrUrGrUrGrCrCrUrGrUrCrCdTdT / antisense rGrGrArCrArGrGrCrArCrArCrUrGrUrCrCrCrCdGdA
2. sense rArArCrCrUrCrArUrGrArArCrUrGrGrGrArGrUdTdT / antisense rArCrUrCrCrCrArGrUrUrCrArUrGrArGrGrUrUdCdA
3. sense rArArArUrGrUrArArArUrUrCrGrArArCrCrArCdTdT / antisense rGrUrGrGrUrUrCrGrArArUrUrUrArCrArUrUrUdTdG

a:
[47.8, 34.5, 53.9]
